I'd be grateful if you could share measured protein stability index for these entries.
B1: TRIM15 (parent)
chain: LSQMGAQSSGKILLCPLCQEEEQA

# Variants of: B1
# protocolText: protein stability index of a GFP-peptide fusion (GPS, HEK-293T) (PSI 1-6); higher = more stable;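 further: lentivirally expressed fusions sorted by FACS into six bins by GFP to DsRed ratio, PSI derived from sequencing read proportions per bin multiplied by bin number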
# assaySetup: c terminus: a fixed tail appended
Response field accepts a number only; no unit should be typed.

Req: Given the variant "P16D" , what is its reported protein stability index?
Resp: 4.05

Req: Record: "P16N"
Resp: 4.1

Req: Record: "G10E"
Resp: 3.89

Req: Record: "L1V"
Resp: 3.97

Req: Record: "L13F"
Resp: 4.09

Req: Record: "Q19F"
Resp: 3.62

Req: Record: "C15N"
Resp: 5.22

Req: Record: "K11F"
Resp: 2.44

Req: Record: "C18K"
Resp: 4.27

Req: Record: "A24I"
Resp: 3.87

Req: Record: "S8P"
Resp: 3.73

Req: Record: "I12H"
Resp: 3.51

Req: Record: "L14F"
Resp: 3.59

Req: Record: "C15W"
Resp: 4.47

Req: Record: "Q23D"
Resp: 2.89

Req: Record: "C18Q"
Resp: 5.56

Req: Record: "L1I"
Resp: 3.38

Req: Record: "Q19K"
Resp: 3.46

Req: Record: "G5M"
Resp: 2.95

Req: Record: "A6F"
Resp: 2.6

Req: Record: "S2Y"
Resp: 3.63

Req: Record: "A6E"
Resp: 3.56

Req: Record: "C18P"
Resp: 3.47

Req: Record: "A24M"
Resp: 2.84

Req: Record: "Q23E"
Resp: 4.53

Req: Record: "G10F"
Resp: 2.74

Req: Record: "K11L"
Resp: 1.76

Req: Record: "A24S"
Resp: 3.94

Req: Record: "Q23W"
Resp: 3.56

Req: Record: "Q7A"
Resp: 4.11

Req: Record: "G5N"
Resp: 3.39

Req: Record: "S9A"
Resp: 3.07

Req: Record: "C15P"
Resp: 4.96

Req: Record: "G10H"
Resp: 3.71
